Each entry below lists one item and its recorded TGI value.
# Test system: SF-268 CNS
# Protocol Details: NCI tumour cell line growth inhibition, 48 h

Illustrative cases are given below, each with its answer.
{"Compound": "CCOC(=O)C1C(=O)CC(C)(O)C(C(=O)OCC)C1c1ccc(OC)cc1 (stereo unspecified)", "Study Target": "SF-268 CNS", "TGI": "> 100 µM"}
{"Compound": "Clc1cccc(Cl)c1C1SCc2nc3ncccc3n21 (stereo unspecified)", "Study Target": "SF-268 CNS", "TGI": "> 100 µM"}
{"Compound": "COc1ccc2c(c1)c(=O)oc1cc(OC/C(=N\\O)c3ccc(F)cc3)ccc12", "Study Target": "SF-268 CNS", "TGI": "> 100 µM"}
{"Compound": "COc1cc([C@@H]2c3cc4c(cc3[C@H](O)[C@H]3COC(=O)[C@@H]23)OCO4)cc(OC)c1OC", "Study Target": "SF-268 CNS", "TGI": "> 100 µM"}
{"Compound": "COc1ccc2c(c1)N(CCO)C1=C(C(=O)OC1)C2c1cccc(Br)c1 (stereo unspecified)", "Study Target": "SF-268 CNS", "TGI": "21.3 µM"}

Now let's try a different one.
Q. Give recorded TGI. O=C(O)C#Cc1ccc([N+](=O)[O-])cc1
A. > 100 µM
